Target: Sodium-dependent noradrenaline transporter (Homo sapiens, UniProt P23975)
Sequence (P23975 whole entry): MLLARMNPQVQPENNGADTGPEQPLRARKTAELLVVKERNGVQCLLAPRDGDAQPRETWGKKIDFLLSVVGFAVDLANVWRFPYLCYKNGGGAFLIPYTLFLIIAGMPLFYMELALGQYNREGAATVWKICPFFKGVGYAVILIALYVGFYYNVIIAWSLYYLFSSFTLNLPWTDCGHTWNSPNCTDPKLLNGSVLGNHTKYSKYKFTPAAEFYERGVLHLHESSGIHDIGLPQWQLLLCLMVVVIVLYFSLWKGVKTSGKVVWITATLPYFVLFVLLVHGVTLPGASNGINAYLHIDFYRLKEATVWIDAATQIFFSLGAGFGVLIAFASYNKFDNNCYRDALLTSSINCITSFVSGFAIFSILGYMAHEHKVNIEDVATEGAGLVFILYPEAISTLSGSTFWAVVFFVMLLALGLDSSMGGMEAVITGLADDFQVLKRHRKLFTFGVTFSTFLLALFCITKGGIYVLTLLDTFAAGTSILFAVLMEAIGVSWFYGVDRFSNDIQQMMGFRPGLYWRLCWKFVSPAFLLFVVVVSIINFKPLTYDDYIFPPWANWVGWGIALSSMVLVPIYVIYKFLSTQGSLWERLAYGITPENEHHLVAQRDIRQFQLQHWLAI
quantity_measured: pKi
// scale note: pKi = -log10(conc_M); give the bare number

Given CN(C)CCC(Oc1ccccc1)c1ccc(OCCCN2CCCCC2)cc1 (stereo unspecified) , state its recorded pKi. 6.70

----------
For each record, write down the corresponding log10 Ki.
Log scale reminder: Ki in nM, then log10 taken.

Lab note: need log10 Ki with Sodium-dependent serotonin transporter (Rattus norvegicus) for entry CN(C)CCC(Oc1ccc(C(F)(F)F)cc1)c1ccc(OCCCN2CCCCC2)cc1 (stereo not given) , please look it up. 1.00

Lab note: need log10 Ki with Sodium-dependent serotonin transporter (Rattus norvegicus) for entry CN(C)CCC(Oc1ccc(C(F)(F)F)cc1)c1ccccc1 (stereo not given) , please look it up. 0.89

Lab note: need log10 Ki with Sodium-dependent serotonin transporter (Rattus norvegicus) for entry CN(C)CCC(Oc1ccccc1)c1ccc(C#CCCN2CCCCC2)cc1 (stereo not given) , please look it up. 0.78

Lab note: need log10 Ki with Sodium-dependent serotonin transporter (Rattus norvegicus) for entry CC(C)N1CCN(C(=O)c2ccc(C(CCN(C)C)Oc3ccccc3)cc2)CC1 (stereo not given) , please look it up. 1.80

Lab note: need log10 Ki with Sodium-dependent serotonin transporter (Rattus norvegicus) for entry CN(C)CCC(Oc1cccc(Br)c1)c1ccc(OCCCN2CCCCC2)cc1 (stereo not given) , please look it up. 0.36
